Measured Relative affinity of the bond (RAB), Mineralocorticoid, 24 H by item
- test_system: Mineralocorticoid Receptor of the Rats' Kidney (Rattus norvegicus)
- Construct: The kidneys were then removed, decapsulated and homogenized at 0° C; from tissue; host or cells: kidney cytosol (105,000 g supernatant) of adrenalectomised male Sprague-Dawley rats
- Sequence (P22199 1-981): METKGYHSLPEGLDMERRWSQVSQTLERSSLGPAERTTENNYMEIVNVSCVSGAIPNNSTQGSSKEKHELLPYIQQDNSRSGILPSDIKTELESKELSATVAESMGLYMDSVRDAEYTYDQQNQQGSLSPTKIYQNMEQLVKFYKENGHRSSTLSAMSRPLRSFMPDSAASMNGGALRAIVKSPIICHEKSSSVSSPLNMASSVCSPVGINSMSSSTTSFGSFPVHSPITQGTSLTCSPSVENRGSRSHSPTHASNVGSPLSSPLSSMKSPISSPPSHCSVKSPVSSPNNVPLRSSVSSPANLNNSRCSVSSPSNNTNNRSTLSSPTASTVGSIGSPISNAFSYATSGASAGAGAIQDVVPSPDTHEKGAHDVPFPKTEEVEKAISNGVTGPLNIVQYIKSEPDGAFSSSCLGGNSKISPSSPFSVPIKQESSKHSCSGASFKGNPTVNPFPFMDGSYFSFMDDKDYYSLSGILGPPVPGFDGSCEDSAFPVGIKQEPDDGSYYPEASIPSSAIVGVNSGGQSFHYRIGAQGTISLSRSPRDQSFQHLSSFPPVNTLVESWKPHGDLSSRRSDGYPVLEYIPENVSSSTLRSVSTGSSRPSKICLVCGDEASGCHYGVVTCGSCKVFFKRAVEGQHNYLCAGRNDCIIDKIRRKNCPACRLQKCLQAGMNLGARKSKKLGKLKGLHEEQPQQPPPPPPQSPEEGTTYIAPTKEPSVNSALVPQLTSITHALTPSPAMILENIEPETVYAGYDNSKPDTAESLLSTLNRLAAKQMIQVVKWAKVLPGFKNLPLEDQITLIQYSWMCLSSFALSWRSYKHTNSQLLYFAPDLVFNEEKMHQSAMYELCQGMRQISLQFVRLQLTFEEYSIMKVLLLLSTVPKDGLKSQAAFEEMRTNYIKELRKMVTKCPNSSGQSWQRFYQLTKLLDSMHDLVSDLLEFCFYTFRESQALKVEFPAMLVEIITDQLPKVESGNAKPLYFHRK
- method_summary: Relative affinity of the bond, mineralocorticoid receptor (tritiated aldosterone displacement)
- Assay type: binding
- recorded_conditions: incubation 24 H at 0° C.; RAB=100(CH)/(CX)
Answer as a number with no unit attached.

1) CCCCN(C)C(=O)CCCCCCCCCCC[C@H]1C[C@]2(C)[C@@H](O)CC[C@H]2[C@@H]2CCc3cc(O)ccc3[C@@H]12 ... 0
2) CN(Cc1ccccc1)C(=O)CCCCCCCCCC[C@H]1C[C@]2(C)[C@@H](O)CC[C@H]2[C@@H]2CCC3=CC(=O)CCC3=C12 ... 0.5
3) CN(C)CCN(C)C(=O)CCCCCCCCCC[C@H]1C[C@]2(C)[C@@H](O)CC[C@H]2[C@@H]2CCC3=CC(=O)CCC3=C12 ... 0.1
4) CCCCN(C)C(=O)CCCCCCCCCC[C@H]1C[C@]2(C)[C@@H](O)CC[C@H]2[C@@H]2CCc3cc(O)ccc3[C@@H]12 ... 0.00
5) CC#C[C@]1(O)CC[C@H]2[C@@H]3CCC4=CC(=O)CCC4=C3[C@@H](CCCCCCCCCCC(=O)NCCCC)C[C@@]21C ... 0

Let us move to another entry and its Relative affinity of the bond (RAB), Mineralocorticoid, 24 H.
INPUT: # assay system Mineralocorticoid Receptor of the Rats' Kidney (Rattus norvegicus): give Relative affinity of the bond (RAB), Mineralocorticoid, 24 H of CC(C)N(C)C(=O)CCCCCCCCCC[C@H]1C[C@]2(C)[C@@H](O)CC[C@H]2[C@@H]2CCc3cc(O)ccc3[C@@H]12
OUTPUT: 0
